Below, each entry is listed with its recorded pKi.
Target: GABA A receptor α5β3γ2 (Homo sapiens, UniProt P18507+P31644)
Construct: expressed in transfected cells; host or cells: HEK293 (transiently transfected for the human receptors)
Assay: [3H]flumazenil competition binding, human GABA A α5β3γ2 receptors expressed in HEK293 cells
Settings: Table 1; human α5, [3H]flumazenil, mean of two determinations; read-out: Ki h
Field pKi (float): negative decimal logarithm of the concentration in molar.

Cc1onc(-c2ccc(F)cc2)c1C(=O)c1c[nH]c2cc(C(=O)NC3CCCC3)ccc12 [Example 22]; 8.01
Cc1onc(-c2cccc(F)c2)c1C(=O)c1c[nH]c2cc(C(=O)NC3CCOCC3)ccc12 [Example 32]; 7.38
Cc1onc(-c2ccc(F)cc2)c1C(=O)c1c[nH]c2cc(C(=O)NCCN3CCOCC3)ccc12 [Example 14]; 8.34
Cc1onc(-c2cccc(F)c2)c1C(=O)c1cn(C)c2cc(C(=O)NC3CCCC3)ccc12 [Example 46]; 6.96

Q: // returns reported pKi for input Cc1onc(-c2cccc(F)c2)c1C(=O)c1c[nH]c2cc(C(=O)NC3CCC3)ccc12 [Example 34]
Result: 7.23

Q: // returns reported pKi for input Cc1onc(-c2ccccc2)c1C(=O)c1c[nH]c2cc(C(=O)NCc3ccccn3)ccc12 [Example 5]
Result: 8.40

Reference source for all entries: patent US7378435B2
